The measured values listed here are drawn from PubChem BioAssay.

Tested on: wheat germ agglutinin (Triticum aestivum), Alexa647-labelled
Experiment: wheat germ agglutinin binders on compound microarrays, profiling panel, artefact control for SMM control-protein annotation, biochemical, small-molecule microarray, 635/667 nm fluorescence (AID 1140);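 note: score merges 667 nm feature emission with signal to noise over triplicate slides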
Details: WGA-A647 binding, 635 nm fluorescence, higher = more signal
Recorded composite z-score determines the group label, using lower range (below 0.4), middle range (0.4 to below 0.9), upper range (0.9 or more)

The examples below pair each entry with its known result.
>  <Molecule>
CCOC(=O)C[C@H]1[C@H](OC(=O)c2ccc(C(=O)c3ccccc3)cc2)[C@@H](NC(=O)c2ccccc2)c2cc(OCCCO)ccc2N1C(=O)c1ccc2ccccc2n1

>  <Assigned class>
lower range

$$$$
>  <Molecule>
COC(=O)[C@@]1(Cc2ccc(F)cc2)[C@H]2c3cc(C(=O)N(C)C)n(Cc4ccccc4)c3C[C@H]2CN1C(=O)c1ccccc1

>  <Assigned class>
upper range

$$$$
>  <Molecule>
CC(C)N1C(=O)[C@@]2(Cc3ccccc31)c1ccccc1C(=O)N(Cc1ccccc1Cl)[C@H]2c1ccc(CO)cc1

>  <Assigned class>
lower range

$$$$
>  <Molecule>
COC(=O)[C@@]1(Cc2ccccc2)[C@H]2c3cc(C(=O)N(C)C)n(Cc4ccsc4Br)c3C[C@H]2CN1C(=O)c1ccccc1

>  <Assigned class>
upper range

$$$$

### Prompt Which bin should I file NCCCCCCNC(=O)[C@@H]1C[C@@H]2C(=O)NCC(=O)N2[C@@H]1c1ccc(O)cc1 under?
### Response middle range

### Prompt Next record, please: O=C1[C@@]23C=C(Br)[C@H](C[C@@H]2CCOC3)[C@@]12CO2
### Response lower range

### Prompt Next record, please: CC(=O)NCCCC[C@@H]1NC(=O)[C@H]2C[C@@H](C(=O)NCCCCCCNC(=O)CS)[C@@H](c3ccc(O)cc3)N2C1=O
### Response middle range

### Prompt Next record, please: O=C(CS)NCCCCCCNC(=O)[C@@H]1C[C@@H]2C(=O)NCC(=O)N2[C@@H]1c1cccc(OCCO)c1
### Response lower range

### Prompt Next record, please: CC(C)N1C(=O)C[C@@](C(=O)NCC(F)(F)F)(c2ccc([N+](=O)[O-])cc2)[C@H]1c1ccc(CO)cc1
### Response lower range

### Prompt Next record, please: CC(CO)N1C(=O)[C@@H]2C3C(=O)OCCC/C=C\[C@H]3OC23C=CCN(C(C)(C)C)C(=O)[C@@H]13 (some centres undefined)
### Response lower range

====

Assay: binders from COS7 lysate, DM2A8 probe, primary screen, torsin A project, cell lysate, small-molecule microarray, fluorescence 635/667 (AID 1065)
Conditions: higher = more signal, COS7 lysate expressing mutant human TOR1A
Assay endpoint: composite z-score
Give a plain numeric answer without units written out.

Example entries begin here.
>  <Compound>
C=CC[C@@]1(C(=O)NCCN2CCOCC2)N=C(c2ccc(OCCCO)cc2)O[C@@H]1c1ccccc1N=[N+]=[N-]

>  <Assay endpoint>
composite z-score

>  <Result>
-0.355

$$$$
>  <Compound>
COc1ccc(-c2cc3c(c(-c4ccc(Oc5ccccc5)cc4)n2)[Si](C(C)C)(C(C)C)OC3)cn1

>  <Assay endpoint>
composite z-score

>  <Result>
-0.65

$$$$
>  <Compound>
COCCOC(=O)N1C(=O)[C@@]2(c3cc(C#CCC(C(=O)OC)C(=O)OC)ccc31)[C@H](c1ccccc1OCCO)N1[C@H](c3ccccc3)[C@H](c3ccccc3)OC(=O)[C@H]1[C@@H]2C(=O)NC[C@H](O)c1ccccc1

>  <Assay endpoint>
composite z-score

>  <Result>
0.114

$$$$
>  <Compound>
COC(=O)C[C@H]1O[C@]2(C(=O)N(C)c3ccccc32)[C@@H](C)[C@@H]1[Si](C)(C)F

>  <Assay endpoint>
composite z-score

>  <Result>
0.109

$$$$
>  <Compound>
COCCOC(=O)N1C(=O)[C@@]2(c3cc(C#CC4(O)CCCCCC4)ccc31)[C@H](c1ccccc1OCCO)N1[C@H](c3ccccc3)[C@H](c3ccccc3)OC(=O)[C@H]1[C@@H]2C(=O)N1CCN(c2ncccn2)CC1

>  <Assay endpoint>
composite z-score

>  <Result>
0.604

$$$$

### Prompt Request the reported composite z-score associated with CC(C)C(=C=CC[C@@H](O)c1ccc(OCCO)cc1)C[C@@H](O)COCc1ccccc1
### Response 0.3

### Prompt Next record, please: C=CCNC(=O)[C@@H]1[C@H]2C(=O)O[C@H](c3ccccc3)[C@H](c3ccccc3)N2[C@H](c2ccc(O)cc2)[C@@]12C(=O)Nc1ccc(C#CCNC(N)=O)cc12
### Response 0.135

### Prompt Next record, please: [N-]=[N+]=NCc1ccccc1[C@@H]1OC(c2ccc(OCCCO)cc2)=N[C@]1(Cc1ccccc1)C(N)=O
### Response -0.187

### Prompt Next record, please: CCS[C@H]1[C@@H](C(=O)O)[C@H](c2ccc(C)cc2)N(S(=O)(=O)c2ccc(C)cc2)[C@@H]1CC
### Response -0.0564

### Prompt Next record, please: NC(=O)N1C(=O)C2C(C1=O)C1C=C(c3ccc(CO)cc3)C2C(c2cccs2)N1Cc1cccc(OC(F)(F)F)c1 (stereo not given)
### Response 0.639

### Prompt Next record, please: CCOC(=O)C[C@H]1[C@H](OC(=O)c2ccc(C(=O)c3ccccc3)cc2)[C@@H](NC(=O)c2ccc3ccccc3n2)c2cc(OCCCO)ccc2N1C(=O)c1ccccc1
### Response 0.264

### Prompt Next record, please: COc1ccc(C(=O)Nc2ccc(CN3C(=O)[C@]4(O[C@H](CCO)[C@@H]([Si](C)(C)c5ccc(OC)cc5)[C@@H]4C)c4ccccc43)cc2)cc1
### Response 0.0876

### Prompt Next record, please: O=C(OCc1ccccc1)C1=CCC2c3[nH]c4ccccc4c3C(=O)C1N2S(=O)(=O)c1ccccc1[N+](=O)[O-] (stereo not given)
### Response -0.0749

### Prompt Next record, please: CCCC[C@@H]1C[C@H]1[C@@H](NC(=O)c1ccccc1)c1ccc(C(=O)OC)cc1
### Response -0.0965

### Prompt Next record, please: Cc1ccc(N2C(=O)c3ccccc3[C@@H](C(=O)NC3CC3)[C@@H]2c2ccc(CO)cc2)nc1
### Response -0.78

### Prompt Next record, please: O=C1NC(=O)C2C1C=CC(C(O)c1cc(C(F)(F)F)cc(C(F)(F)F)c1)N2Nc1ccccn1 (stereo not given)
### Response 0.134

### Prompt Next record, please: O=C1N[C@@H](Cc2ccccc2)C(=O)N2[C@@H]1C[C@@H](C(=O)O)[C@H]2c1cccc(OCCO)c1
### Response 0.571

### Prompt Next record, please: C[N+](C)(C)CCCCCCNC(=O)[C@@H]1C[C@@H]2C(=O)N[C@@H](Cc3ccccc3)C(=O)N2[C@@H]1c1cccc(OCCO)c1
### Response 0.673

### Prompt Next record, please: C=C(CC1([C@@H](NP(=O)(c2ccccc2)c2ccccc2)[C@H]2C[C@@H]2CCCC)CC1)c1ccccc1
### Response -0.417

### Prompt Next record, please: O=C1OCCC/C=C\[C@H]2OC34C=CCN(Cc5ccccc5)C(=O)[C@H]3N(CCCO)C(=O)[C@@H]4C12 (stereo not given in full)
### Response 2.29

### Prompt Next record, please: COC(=O)[C@@]1(Cc2ccccc2)N=C(c2ccc(OCCCO)cc2)O[C@H]1c1ccccc1
### Response 0.0099

### Prompt Next record, please: COc1cc(NN2C(C(O)c3ccco3)C=CC3C(=O)N(c4ccccc4)C(=O)C32)cc(OC)c1OC (stereo not given)
### Response -0.218

### Prompt Next record, please: COc1cc2c(cc1OC)CN(C(=O)[C@@H]1[C@H]3C(=O)O[C@H](c4ccccc4)[C@H](c4ccccc4)N3[C@H](c3ccccc3OCCO)[C@@]13C(=O)Nc1ccc(C#CCCO)cc13)CC2
### Response 0.531

### Prompt Next record, please: C=CCOC(=O)[C@H]1[C@@H]2C(=O)O[C@@H](c3ccccc3)[C@@H](c3ccccc3)N2[C@@H](c2ccc(OCCOC(=O)[C@H]3C[C@H]4C(=O)N[C@@H](CCCCNC(C)=O)C(=O)N4[C@H]3c3ccc(O)cc3)cc2)[C@]12C(=O)Nc1ccc(I)cc12
### Response 0.517

### Prompt Next record, please: CCC(CC)C(O)C1C=CC2C(=O)NC(=O)C2N1Nc1ccccn1 (stereo not given)
### Response 0.247

====

Test system: Human papillomavirus type 1a protein E7 (residues 44-93)
Assay: HPV1a E7 fragment binders on microarrays, primary screen, biochemical, small-molecule microarray, residues 44-93, 635 nm fluorescence (AID 1108);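 note: E7 fragment applied at 1 µg/mL in TBST for 1 h at 4 C; score combines spot fluorescence with its signal to noise ratio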
Details: small-molecule microarray binding, fluorescence 635 nm; higher = more signal
Assay endpoint: composite z-score
Give a plain numeric answer without units written out.

>  <Molecule>
CC(C)C(=C=CC[C@@H](O)c1ccc(OCCO)cc1)C[C@@H](O)c1ccccn1

>  <composite z-score>
0.323

$$$$

### Prompt Request the reported composite z-score associated with CCCC[C@@H]1C[C@H]1[C@@H](NC(=O)C(C)(C)C)c1ccc(C(F)(F)F)cc1
### Response 0.946

### Prompt Next record, please: COc1ccccc1CN1C(=O)c2ccccc2[C@@]2(Cc3ccccc3N(CC(C)C)C2=O)[C@@H]1c1ccc(CO)cc1
### Response -0.461
